Data origin: the supplement of paper PMC9170038

tested on: K4 kissing-loop RNA reporter; experiment: apparent KD of K4 kissing-loop reporter; higher = weaker reporter binding; settings: Eterna round: R107; input ligand: theophylline 20 uM;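 also: bound reporter read as fluorescence of individual clusters on recovered sequencing chips by microscopy, with normalized cluster intensities fitted with a binding model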
Reported apparent KD of K4 kissing-loop reporter by item:

| seq | assayedTarget | apparent KD of K4 kissing-loop reporter (nM) |
| --- | --- | --- |
| AAUAUCUAGUAUAUAUUUAAUAAAACAGAUACCAGUGAUAAUAGACACCCUUGGCAGCUGGACGAGUGAUGUUCGUAUAUAUUAA [JR_SSTheophyA_Sub007] | K4 kissing-loop RNA reporter | 184 |
| AUCAGUUCAGCUGAUACCAGUCAGGAGUGAUGUUCCUGCUCGCGUCAGCCGCGUCGACAAGACCCUUGGCAGCAGCUCUAAGUGU [theeternabot_exclusion_KL_Theo_B_40] | K4 kissing-loop RNA reporter | 103 |
| CGCGCGUGAGGACUUGCCCUUCAUGGAGAUACCAGCCAGUAUGCGGGCCCUUGGCAGCUCGAGUGAUGUUCGAGUUUAAGGCAAA [Riesla] | K4 kissing-loop RNA reporter | 114 |
| GAACAUAGUAAAGGAUAUUCCUGCCUCGCGCGAUUGAUUAGUGAUGUUGACGAUAUCGCUUUGAGGGAAGAAGGUUAACAAGUCA [theeternabot_exclusion_KL_FMN_B_4] | K4 kissing-loop RNA reporter | 478 |
| CUAUUUCGCGUGGAUACCAGCGGUCGUAAAAUGUCAGUGAUGUUGAAGAGGAAAAGAGCUCGCCCUUGGCAGCCAUUCCGCACUA [theeternabot_sameState_KL_Theo_B_34] | K4 kissing-loop RNA reporter | 446 |
| UGUAUUUCGGCGGCCGCCACUGACCAUAGCCUUCGAUGGCCAGUGAUGUUGGCCUCUGGCUCUAACAGGACCGGGCCGAAUUGCG [Usvediin] | K4 kissing-loop RNA reporter | 168 |

====

test system: MS2 coat protein; assay: apparent KD of MS2 coat protein; designed switch direction (-1 OFF switch, 1 ON switch): -1; higher = weaker reporter binding; settings: Eterna round: R95; input ligand: microRNA oligo, concentration not stated
Class membership depends on apparent KD of MS2 coat protein alone; the intervals are small value = under 20 nM, mid value = from 20 nM up to 50 nM, large value = 50 nM and over

| seq | assignedCategory |
| --- | --- |
| GUGUACAGAGGAUAUGCACGAGUAGUUACGAAAGUAACUGCACAUGAGGAUCACCCAUGUAGAAGGCUGUACAC [Dot plot directed v4] (puzzle: Exclusion 2) | small value |
| AGGAGUAGUAUCCGAUCCUACAUGAGGAUCACCCAUGUAGCUAGACGUGCACGCGAUGCUCGUCAGACUACCAGAUG [salish99_TOv1_r3_034] (puzzle: Sensor v3, turn-off variant 1) | large value |
| AAGAAACAUGAGGAUCACCCAUGUGAGGAUAUGAUGAGUAUUAUGUAUGUAGUAUGAAUCAGAAGGCACAAAGG [Mat - Mod Mix D40] (puzzle: Exclusion 1) | large value |
| CGUAUCUUUCACGUGAGUAGUGGGUGCAACAGGUGGGUUACAUGAGGAUCACCCAUGUACUCACUUGCUCGUCUUAU [Grok-var2-06] (puzzle: Sensor v3, turn-off variant 2) | mid value |
| AUUUUGUCAGGAUAUGAUUAGUAGGACGAGAGUGCUACUACUUAGAAGGGACAUGAGGAUCACCCAUGUAUUCC [Bring Us a Shrubbery-08] (puzzle: Exclusion 4) | small value |
| GAAUAGGUAGGAUAUACGAAAAAAAAGGGUAGAAAAAAAACACAUGAGGAUCACCCAUGUAGAAGGACCAAAAG [salish99_ex2_r3_089] (puzzle: Exclusion 2) | mid value |
| GGUGCGAGUGUGAGGAUAUGCUGGUCGUAAGAUCAGCAGAAGGCACAUGAGGAUCACCCAUGUGAAAACGUACC [Mat - Exclusion 4 - JL Mod - D75] (puzzle: Brourd's mod of Exclusion 4) | small value |
| AAAUAACAAGCGAGAUCCUACAUGAGGAUCACCCAUGUGCUCGUCUUAACAAGUACUAUCACGAAAGUGAUAGUACA [Mat - Sensor v3 - turn-off var 1 - Eli Mod - D69] (puzzle: Sensor v3, turn-off variant 1) | large value |
| GUGGUACAUGAGGAUCACCCAUGUUAGGAUAUCGCGUGAGGUUUUACUUCCGCACGCGCGAGAAGGGACGUCUU (puzzle: Exclusion 1) | mid value |

====

test system: MS2 coat protein; assay: apparent KD of MS2 coat protein; designed switch direction (-1 OFF switch, 1 ON switch): 1; higher = weaker reporter binding; details: Eterna round: R95; input ligand: FMN 200 uM
Response key: 1 means apparent KD of MS2 coat protein >= 40 nM; -1 means apparent KD of MS2 coat protein < 40 nM.

| seq | assayedTarget | assignedCategory |
| --- | --- | --- |
| GGUCCCUACGCACAGGAUAUUCUUUUGGCAACAUGAGGAUCACCCAUGUGUGCCGAUCAUGGUUAGAAGAAGGGUGGUAGGGACG [Cesovexe] (puzzle: Same State 2) | MS2 coat protein | -1 |
| GUGCUACAUGAGGAUCACCCAUGUACAAAUGUACGAGGAUAUGCAUGGGCUAAUGCUGGUGCAGAAGGCGUAGCGC [Pin2Pin #7] (puzzle: Same State 1) | MS2 coat protein | -1 |
| GGUAAACAUGAGGAUCACCCAUGUAAUAAUAUGGGAGGAUAUGGGAAUUAAUUAAUUAAACCAGAAGGCCUAAUGG [Mat - Same State 1 - D86] (puzzle: Same State 1) | MS2 coat protein | 1 |
| GGUCCAGCCUGAGCUGGACAAAAGCAUGUACAUGAGGAUCACCCAUGUCAUGUACAAGCUUUUUGCUCGUCUUAAGU [Mat - hsa-mir-208a - 86] (puzzle: Sensor for hsa-mir-208a) | MS2 coat protein | 1 |
| AGAGAACAUGAGGAUCACCCAUGUGGGAGAUGCAUAGGAUAUAGGAGAGAGAGCGAGGAACUAGAAGGAUGAUGGA [JR_SS1_Sub081] (puzzle: Same State 1) | MS2 coat protein | 1 |
| AGUCCAGCAAGAGCUGGACAAAAGCAUGUACAUGAGGAUCACCCAUGUUCAUGUACAAGCUUUUUGCAAGUCAAAAG [Mat - hsa-mir-208a - Mod of JL - 73] (puzzle: Sensor for hsa-mir-208a) | MS2 coat protein | 1 |
| ACAGAGUGAAGACAGGAUAUUCGCGAUGGCACAUGAGGAUCACCCAUGUUUUGAGCACAUAAACAGAAGAAGGGUUAAAACUCAG [Zadier] (puzzle: Same State 2) | MS2 coat protein | -1 |
| GUCCAACAUGAGGAUCACCCAUGUCGGGCGUGCACAGGAUAUCGCGCCGGGAAAGACCAGCGAGAAGGGUGAUCGA [Leriqu] (puzzle: Same State 1) | MS2 coat protein | 1 |
| UUUAGUUGCGGGCAGGAUAUGUAUUAAAAUACAUGAGGAUCACCCAUGUGAGACCGAAAAGGUCUACAGAAGGGCCAAUCGCGAC [Laonerce - 20] (puzzle: Same State 2) | MS2 coat protein | -1 |
| AGAGAACAUGAGGAUCACCCAUGUAGGAUGGGCAUAGGAUAUAGAAGGAUGAAGGAGAAACUAGAAGGAUGAUGGA [JR_SS1_Sub076] (puzzle: Same State 1) | MS2 coat protein | 1 |
| AGUCCAGCCUGAGCUGGACAAAAGCAUGUACAUGAGGAUCACCCAUGUCAUGUACAAGCUUUUUGCAAAUCUUAAUA [Mat - hsa-mir-208a - Mod of JL - D34] (puzzle: Sensor for hsa-mir-208a) | MS2 coat protein | 1 |
| ACGUCGAUAUCACAGGAUAUACUCACAUCUACAUGAGGAUCACCCAUGUAGCGGUAUUCCGGUGCGUAGAAGGGUGAUGGACGAC [Same State 2 - Mod of Artece v.4] (puzzle: Same State 2) | MS2 coat protein | -1 |
| AGUCCAGCCUGAGCUGGACAAGAGCAUGUACAUGAGGAUCACCCAUGUCAUGUACAAGCUUUUUGCUCGUCUUAAUA [Zipper 49 - 2] (puzzle: Sensor for hsa-mir-208a) | MS2 coat protein | 1 |
| GAGAAGAGGGACAAGGAUAUGUCAGGAGAGACAUGAGGAUCACCCAUGUAGAGGAAGAGAGAGAGACAGAAGGUGUCGAGAGCGA [JR_SS2_Sub015] (puzzle: Same State 2) | MS2 coat protein | 1 |
| GCUACAUCGAGCGAGGAUAUGCGGCGUAUAACAUGAGGAUCACCCAUGUCCUUCGAAUCGAGUACGCAGAAGGCGCUACGGUAGC [Big Heel] (puzzle: Same State 2) | MS2 coat protein | 1 |
| AUUAAACAUGAGGAUCACCCAUGUCAACAAAGUCGAGGAUAUGGGCAAAUUAAAUAAGAACCAGAAGGCGAAUAAU [salish99_ss1_r3_060] (puzzle: Same State 1) | MS2 coat protein | -1 |
| GACAUUCUAUCUCAGGAUAUCAUGUCAAAGACAUGAGGAUCACCCAUGUACCAGGAAACUGGUUAUGAGAAGGGAGAUAGAAUGA [Mat - Same State 2 - Mod - D46] (puzzle: Same State 2) | MS2 coat protein | 1 |
| GUACUACAUGAGGAUCACCCAUGUACAAAGGUACGAGGAUAUGCAUGGACGAAAGUUGGUGCAGAAGGCGUGGUAC [Pin2Pin #5] (puzzle: Same State 1) | MS2 coat protein | -1 |
| AAUAAGUUCAGCUCGUCUUGCGCCGACUGACAUGAGGAUCACCCAUGUGGAUUCCAAGAGAUCCAUUGGCGUGUUUC [Erisdian] (puzzle: Sensor for hsa-mir-208a) | MS2 coat protein | -1 |
| AGCUAUCGCGUACGAUAGCUGAAGCGUGUACAUGAGGAUCACCCAUGUCAUGUGCAAGCUUUUUGCUCGUCUUAUUG [JL-shm-2.29 JL mod] (puzzle: Sensor for hsa-mir-208a) | MS2 coat protein | 1 |
